Subject of test: Serine/threonine-protein kinase Sgk1 (Homo sapiens) (UniProt O00141)
Sequence (O00141 whole entry): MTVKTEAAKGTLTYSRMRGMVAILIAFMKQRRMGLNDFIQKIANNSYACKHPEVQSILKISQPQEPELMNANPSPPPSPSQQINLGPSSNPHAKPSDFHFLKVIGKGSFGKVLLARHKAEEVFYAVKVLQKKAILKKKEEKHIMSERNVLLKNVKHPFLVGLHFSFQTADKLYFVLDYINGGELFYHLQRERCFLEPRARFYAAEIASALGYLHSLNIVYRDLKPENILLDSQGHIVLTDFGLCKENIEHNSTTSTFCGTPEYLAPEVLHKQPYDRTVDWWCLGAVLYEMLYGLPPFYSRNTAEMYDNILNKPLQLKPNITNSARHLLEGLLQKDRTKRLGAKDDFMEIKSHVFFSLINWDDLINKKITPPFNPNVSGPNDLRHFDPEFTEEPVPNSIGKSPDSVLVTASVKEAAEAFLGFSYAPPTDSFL
Conditions used: at 1 µM;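 note: mean percent inhibition of SGK1, from the GSK PKIS screening panel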
Readings of inhibition for the listed compounds
Please state the figure in %; there is no need to write the unit.

For orientation, consider the following solved cases.
{"columns": ["Compound", "Quantity unit", "inhibition"],
 "data": [
  ["NS(=O)(=O)c1ccc(N/N=C2\\C(=O)Nc3ccc(C(=O)NCCc4c[nH]cn4)cc32)cc1", "%", 14.1],
  ["NC(=O)c1ccc(-c2nc(-c3ccccn3)c(-c3ccc4c(c3)OCO4)[nH]2)cc1", "%", 3.63],
  ["N#Cc1c(NC(=O)c2cccc3ccccc23)sc2c1CCCC2", "%", 0.45]
]}

Query: For the compound COc1ccc(-c2coc3ncnc(N)c23)cc1 , give its reported inhibition.
Reply: 1.67

Query: For the compound COc1ccc2cc(-c3c(-c4ccncc4)nc(-c4ccc([S+](C)[O-])cc4)n3C)ccc2c1 (stereo not given) , give its reported inhibition.
Reply: 0.68

Query: For the compound Nc1nc(-c2ccccn2)c(-c2ccc3ncccc3n2)s1 , give its reported inhibition.
Reply: 2.85

Query: For the compound COc1ccc(COc2ccc(Cc3cnc(N)nc3N)cc2OC)cc1 , give its reported inhibition.
Reply: 1.31

Query: For the compound Nc1ncnc2occ(-c3ccc(NC(=O)Nc4cccc(C(F)(F)F)c4)cc3)c12 , give its reported inhibition.
Reply: 3.96

Query: For the compound CCCN1CCC(Oc2cc(Nc3nc(Nc4cccc(F)c4C(N)=O)c4cc[nH]c4n3)c(OC)cc2Cl)CC1 , give its reported inhibition.
Reply: 0.96

Query: For the compound COc1cc(C)c(NC(=O)CN(C)C)cc1Nc1nc(Nc2cccc(F)c2C(N)=O)c2cc[nH]c2n1 , give its reported inhibition.
Reply: -1.3

Origin of values: ChEMBL document CHEMBL1961873
